So I've got a bunch of compounds here, and I need their melting point values.

// for each compound below, give its melting point
1. COC(=O)c1cccc(-c2cnc3c(c2)N(Cc2ccccc2)C(=O)CN3)c1 [Example 30]
2. O=S(=O)(c1cc(F)ccc1F)N1CCNc2ncc(I)cc21 [Example 121]
3. CCOC(=O)c1ccc(-c2cnc3c(c2)N(Cc2c(F)ccc(F)c2Cl)C(=O)CN3)cc1 [Example 5]
4. O=C(O)c1cnc2c(c1)N(Cc1cc(Cl)ccc1Cl)CCN2 [Example 128]
5. O=C1CNc2ncc(I)cc2N1Cc1c(Cl)cccc1Cl [Example 136]
6. O=C(c1ccc(-c2cnc3c(c2)N(Cc2cc(Cl)ccc2C(F)(F)F)CCN3)cc1)N1CCCCC1 [Example 204]
7. Clc1ccc(Cl)c(CN2CCNc3ncc(I)cc32)c1 [Example 158]
8. O=C(c1ccc(-c2cnc3c(c2)N(Cc2cc(F)ccc2F)CCN3)cn1)N1CCOCC1 [Example 76]

211 °C
187 to 188 °C
180 to 182 °C
273 °C (dec.)
> 200 °C
216 °C
169 °C
111 to 113 °C

Could you tell me which melting point is on file for CC(C)(C)OC(=O)N1CC=C(c2cnc3c(c2)N(Cc2cc(Cl)ccc2Cl)CCN3)CC1 [Example 130] ? 92 to 95 °C

---

Answer each item with its documented IC50.
Target: NPM-ALK (Homo sapiens)
Construct: a fusion protein consisting of nucleophosmin (NMP) and the intracellular domain of ALK; the other entry of the earlier key: NPM1 (P06748, Nucleophosmin)
Sequence (Q9UM73 with tags, fused parts or gaps): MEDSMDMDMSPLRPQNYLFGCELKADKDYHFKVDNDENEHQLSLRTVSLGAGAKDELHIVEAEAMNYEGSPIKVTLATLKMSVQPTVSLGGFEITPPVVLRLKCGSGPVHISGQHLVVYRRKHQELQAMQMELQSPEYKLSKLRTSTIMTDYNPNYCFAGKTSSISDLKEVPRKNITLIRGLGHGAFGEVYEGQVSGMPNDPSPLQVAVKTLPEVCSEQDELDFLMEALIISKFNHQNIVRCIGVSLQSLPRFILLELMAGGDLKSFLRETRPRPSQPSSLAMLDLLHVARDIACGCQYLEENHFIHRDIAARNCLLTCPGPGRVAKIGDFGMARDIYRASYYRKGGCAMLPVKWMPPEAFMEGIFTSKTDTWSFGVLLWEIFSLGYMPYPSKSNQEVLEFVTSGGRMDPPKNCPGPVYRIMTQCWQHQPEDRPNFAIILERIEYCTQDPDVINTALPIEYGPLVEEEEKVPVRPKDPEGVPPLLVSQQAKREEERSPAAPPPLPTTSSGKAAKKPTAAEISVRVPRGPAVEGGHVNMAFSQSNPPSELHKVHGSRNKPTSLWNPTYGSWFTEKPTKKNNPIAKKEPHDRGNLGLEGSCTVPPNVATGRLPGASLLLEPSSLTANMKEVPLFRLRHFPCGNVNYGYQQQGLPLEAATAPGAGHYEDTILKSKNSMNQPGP
Test: ALK Cellular Assay (phospho-NPM-ALK immunoblot / ALK tyrosine phosphorylation ELISA)

Fc1ccc(F)c(CN2CCNc3ncc(-c4ccc(N5CCOCC5)nc4)cc32)c1Cl [Example 105]    751 to 1000 nM

Record IC50 per entry; entries follow.
1. FC(F)(F)c1ccc(Cl)cc1CN1CCNc2ncc(-c3ccnc(N4CCNCC4)c3)cc21 [Example 198]
2. O=C(c1ccc(-c2cnc3c(c2)N(Cc2cc(F)ccc2F)CCN3)cc1)N1CCC[C@H]1CN1CCCC1 [Example 65]
3. CN1CCN(C(=O)c2ccc(-c3cnc4c(c3)N(Cc3cc(Cl)ccc3Cl)CCN4)cc2)CC1 [Example 132]

≤ 250 nM
≤ 250 nM
251 to 500 nM

Below is a list of compounds. For each, state its recorded IC50.
1. O=C(c1ccc(-c2cnc3c(c2)N(Cc2cc(F)ccc2F)CCN3)cc1)N1CCC(N2CCCC2)CC1 [Example 66]
2. CN1CCN(c2ncc(-c3cnc4c(c3)N(Cc3c(F)ccc(F)c3Cl)CCN4)cn2)CC1 [Example 106]
3. FC(F)(F)c1ccc(Cl)cc1CN1CCNc2ncc(-c3cn[nH]c3)cc21 [Example 200]
4. Fc1ccc(F)c(CN2CCNc3ncc(-c4ccnc(N5CCOCC5)c4)cc32)c1Cl [Example 186]
5. O=C(c1ccc(-c2cnc3c(c2)N(Cc2c(Cl)cccc2Cl)CCN3)cc1)N1CCC[C@H]1CN1CCCC1 [Example 164]

≤ 250 nM
≤ 250 nM
751 to 1000 nM
≤ 250 nM
251 to 500 nM

---

Target: c-Met (cytoplasmic domain) (Homo sapiens)
Construct: Reactions were initiated with 30 ng/mL c-Met (cytoplasmic domain, Invitrogen Corporation #PV3143); purchased Invitrogen Corporation PV3143
Sequence (P08581 956-1390 limits assumed): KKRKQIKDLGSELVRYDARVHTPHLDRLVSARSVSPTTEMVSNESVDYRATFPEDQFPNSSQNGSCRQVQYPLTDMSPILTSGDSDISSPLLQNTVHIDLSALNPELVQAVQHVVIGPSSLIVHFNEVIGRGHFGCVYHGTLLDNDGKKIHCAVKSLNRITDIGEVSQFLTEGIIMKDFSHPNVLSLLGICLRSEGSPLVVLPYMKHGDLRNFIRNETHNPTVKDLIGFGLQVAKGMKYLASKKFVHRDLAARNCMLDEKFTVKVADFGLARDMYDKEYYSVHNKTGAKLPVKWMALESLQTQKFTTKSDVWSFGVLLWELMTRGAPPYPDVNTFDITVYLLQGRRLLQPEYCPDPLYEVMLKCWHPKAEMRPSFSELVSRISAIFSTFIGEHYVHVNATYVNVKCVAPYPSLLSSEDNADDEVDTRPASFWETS
Assay: c-Met Kinase Assay (ELISA/TRF, PLC-γ substrate)
Format: biochemical
Conditions: 3 μM ATP (Km level); read-out: c-Met Kinase Inhibition (IC50)
Where a name gives a salt, the structure may show the parent alone.
Exercise: state measured IC50 for each of the compounds provided.

Before answering, review these 5 worked examples.
CN1CCN(C(=O)c2ccc(-c3cnc4c(c3)C(O)CCN4)cc2)CC1 (centres unmarked)    > 100 µM
CN(C)CCCCNC(=O)c1ccc(-c2cnc3c(c2)N(Cc2ccccc2)C(=O)CN3)cc1 [Example 15, trifluoroacetic acid salt]    10 to 100 µM
O=C1CNc2ncc(I)cc2N1Cc1c(F)ccc(F)c1Cl    > 100 µM
CC(=O)N1CCN(C(=O)c2cnc3c(c2)N(Cc2cc(Cl)ccc2Cl)CCN3)CC1    10 to 100 µM
O=C1CNc2ncc(I)cc2N1Cc1ccccc1    > 100 µM

Look at each compound and report its IC50.
1. O=C(c1ccc(-c2cnc3c(c2)N(Cc2c(F)ccc(F)c2Cl)CCN3)cc1)N1CCC(N2CCCC2)CC1
2. O=C(c1cnc2c(c1)N(Cc1cc(Cl)ccc1Cl)CCN2)N1CCOCC1
3. O=C(c1ccc(-c2cnc3c(c2)N(Cc2cc(F)c(F)cc2F)CCN3)cc1)N1CCC[C@H]1CN1CCCC1
4. O=C(NCCN1CCCC1)c1ccc(-c2cnc3c(c2)N(Cc2ccccc2)C(=O)CN3)cc1 [Example 12, trifluoroacetic acid salt]

1: 0.1 to 1 µM; 2: 10 to 100 µM; 3: 1 to 10 µM; 4: 10 to 100 µM

Provide IC50 for all items below, preserving their order.
1. O=C1CNc2ncc(-c3cccnc3)cc2N1Cc1c(F)ccc(F)c1Cl [Example 4, trifluoroacetic acid salt]
2. O=C1CNc2ncc(-c3ccc(NS(=O)(=O)CCN4CCOCC4)cc3)cc2N1Cc1cc(F)ccc1F

10 to 100 µM
> 100 µM

---

pIC50: −log10 of the molar value.
Assay system baculovirus-expressed ALK (Homo sapiens); read-out recorded as pIC50. Further: 1 µM ATP (Km level).

Some compounds with recorded pIC50:
Cc1noc(C)c1-c1cnc2c(c1)N(Cc1c(F)ccc(F)c1Cl)CCN2 [Example 103]    6.00 to 7.00
OC1CCNc2nc(Br)ccc21 (centres unmarked) [Example 267]    4.00 to 5.00
Fc1ccc(F)c(CN2CCNc3ncc(-c4ccnc(N5CCCC5)c4)cc32)c1Cl [Example 183]    6.00 to 7.00

Please state, for each entry, its recorded pIC50.
1. CN1CCN(Cc2cc(Cl)ccc2Cl)c2cc(I)cnc21 [Example 187]
2. COc1ccccc1N1CCN(C(=O)c2cccc(-c3cnc4c(c3)N(Cc3cc(Cl)ccc3C(F)(F)F)CCN4)c2)CC1 [Example 311]
3. CCOC(=O)c1ccc(-c2cnc3c(c2)N(Cc2cc(F)ccc2F)CCN3)cc1 [Example 63]
4. O=C(c1ccccc1)N1CCN(C(=O)c2cnc3c(c2)N(Cc2cc(Cl)ccc2Cl)CCN3)CC1 [Example 219]

1. < 4.00
2. 6.00 to 7.00
3. 6.00 to 7.00
4. 5.00 to 6.00

Okay, here is my list. What is pIC50 for each of these?
1. O=C(NCc1csc(-c2ccccc2)n1)c1cccc(-c2cnc3c(c2)N(Cc2cc(Cl)ccc2C(F)(F)F)CCN3)c1 [Example 340]
2. CCOC(=O)N1CCC(NC(=O)c2ccc(-c3cnc4c(c3)N(Cc3cc(Cl)ccc3C(F)(F)F)CCN4)cc2)CC1 [Example 389]
3. Fc1cccc(CN2CCNc3ncc(I)cc32)c1C(F)(F)F [Example 179]

1. 6.00 to 7.00
2. 6.00 to 7.00
3. < 4.00

---

Molecular target: NPM-ALK (Homo sapiens)
Construct: a fusion protein consisting of nucleophosmin (NMP) and the intracellular domain of ALK; the other entry of the earlier key: NPM1 (P06748, Nucleophosmin)
Assay: ALK Cellular Assay (phospho-NPM-ALK immunoblot / ALK tyrosine phosphorylation ELISA)
Give IC50 for every item shown.

Observe how each entry below is paired with its result.
O=C(c1ccc(-c2cnc3c(c2)N(Cc2cc(Cl)ccc2C(F)(F)F)CCN3)cc1)N1CCC(N2CCCC2)CC1 [Example 117]    ≤ 250 nM
Fc1ccc(F)c(CN2CCNc3ncc(-c4cccc(N5CCOCC5)c4)cc32)c1Cl [Example 189]    ≤ 250 nM
CC(c1c(F)ccc(F)c1Cl)N1CCNc2ncc(-c3ccc(N4CCN(C)CC4)nc3)cc21 (stereo not shown) [Example 177]    251 to 500 nM

So what does the record say about IC50 for CN1CCN(c2ccc(-c3cnc4c(c3)N(Cc3cc(Cl)ccc3Cl)CCN4)cn2)CC1 [Example 180] ? 251 to 500 nM

---

Counter-ions that a name gives are not always drawn.
MEASURED_PARAMETER: melting point

In the examples that follow, each entry is paired with its recorded melting point.
O=C(NCCN1CCCC1)c1ccc(-c2cnc3c(c2)N(Cc2ccccc2)C(=O)CN3)cc1 (as salt: trifluoroacetic acid salt)    107 °C
Fc1ccc(F)c(CN2CCNc3ncc(-c4cnc(N5CCOCC5)nc4)cc32)c1Cl    250 to 251 °C
CCOC(=O)c1cncc(-c2cnc3c(c2)N(Cc2cc(F)ccc2F)CCN3)c1    169 to 172 °C
O=C1CNc2ncc(I)cc2N1Cc1cc(F)c(F)cc1F    227 to 228 °C
Fc1ccc(F)c(CN2CCNc3ncc(-c4ccc(N5CCOCC5)nc4)cc32)c1    206 to 207 °C

Go through the items and report each one's melting point.
1. O=C(c1ccc(-c2cnc3c(c2)N(Cc2cc(F)ccc2F)CCN3)cc1)N1CCC(N2CCCC2)CC1
2. N#Cc1c(F)ccc(F)c1CN1CCNc2ncc(-c3ccc(N4CCOCC4)nc3)cc21

1. 202 to 204 °C
2. 188 to 190 °C

Consider the compound CN1CCN(c2ccc(-c3cnc4c(c3)N(S(=O)(=O)c3ccccc3Cl)CCN4)cn2)CC1 and give its measured melting point. 164 to 165 °C
